Test system: ACHN
Assay: NCI tumour cell line growth inhibition, 48 h
Active and inactive are the calls of the source. No stated cut-off is given here; in the data, active = GI50 up to about 1.1 µM and inactive = higher.
READOUT NAME: GI50

Ask: Param readout= GI50; system= ACHN; entry= Nc1cc(CO)cc(Nc2nc3ccc(Cl)cc3c3[nH]c4ccccc4c23)c1 ; returns value.
Reply: 3.17 µM (inactive)

Ask: Param readout= GI50; system= ACHN; entry= CCOC(=O)c1csc(CCCCCCc2nc(C(=O)OCC)cs2)n1 ; returns value.
Reply: > 84.9 µM (inactive)

Ask: Param readout= GI50; system= ACHN; entry= NC1c2c(Br)sc(N3CCCC3)c2C(=O)C1O (stereo not drawn) ; returns value.
Reply: > 50 µM (inactive)

Ask: Param readout= GI50; system= ACHN; entry= c1ccc(NNN2NC(c3ccccc3)C2c2ccccc2)cc1 (stereo not drawn) ; returns value.
Reply: > 100 µM (inactive)

Ask: Param readout= GI50; system= ACHN; entry= O=C1C(=C/C=C2/SC(c3ccccc3)(c3ccccc3)c3ccccc32)C(=O)c2ccccc21 ; returns value.
Reply: > 100 µM (inactive)

Ask: Param readout= GI50; system= ACHN; entry= Cc1cc2nc(O)c(CCC(=O)O)nc2cc1C ; returns value.
Reply: > 100 µM (inactive)

Ask: Param readout= GI50; system= ACHN; entry= O=[N+]([O-])c1nccn1COCCF ; returns value.
Reply: > 100 µM (inactive)

Ask: Param readout= GI50; system= ACHN; entry= CCOC(=O)N(C)C1(c2ccccc2)CCN(CCCC(=O)c2ccc(F)cc2)CC1 ; returns value.
Reply: 84.1 µM (inactive)
